Recorded measurements of RGA (CAGA-12 luc/Smad-2/3 RGA; IC 50 [pM]), one per entry
Target: T1, mouse recombinant TGF-β2 (mouse, UniProt P27090 303-414)
T1 sequence (looked up): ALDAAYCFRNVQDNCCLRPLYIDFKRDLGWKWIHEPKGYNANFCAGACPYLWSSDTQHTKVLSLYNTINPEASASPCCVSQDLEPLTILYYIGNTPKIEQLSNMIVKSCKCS
Test: cell-based or functional assay
The response must be a number in pM with no trailing unit.

These recorded examples may help you get a feel for the data.
MOR14809 (antibody, human IgG1, lambda, V domains shown) VH: QVQLVQSGAEVKKPGESLKISCKGSGYSFTRYWIAWVRQMPGKGLEWMGIIDPGTSDTRYSPSFQGQVTISADKSISTAYLQWSSLKASDTAMYYCARIDKSLILHSAFDYWGQGTLVTVSS VL: SYELTQPLSVSVALGQTARITCSGDNLGGYYAYWYQQKPGQAPVLVIYETNNRPSGIPERFSGSNSGNTATLTISRAQAGDEADYYCASTTQDYLVFVFGGGTKLTVLG: 598
MOR14800 (antibody, human IgG1, lambda, V domains shown) VH: QVQLVQSGAEVKKPGESLKISCKGSGYSFTRYYVAWVRQMPGKGLEWMGWIDPGQSNTRYSPSFQGQVTISADKSISTAYLQWSSLKASDTAMYYCARMLAWGWFDYWGQGTLVTVSS VL: SYELTQPLSVSVALGQTARITCSGDNLGGYYAHWYQQKPGQAPVLVIYDTSDRPSGIPERFSGSNSGNTATLTISRAQAGDEADYYCASYDSSLMMVFGGGTKLTVLG: 123

Attention now turns to another entry.
(Q) Which RGA (CAGA-12 luc/Smad-2/3 RGA; IC 50 [pM]) value is on record for MOR14799 (antibody, human IgG1, lambda, V domains shown) VH: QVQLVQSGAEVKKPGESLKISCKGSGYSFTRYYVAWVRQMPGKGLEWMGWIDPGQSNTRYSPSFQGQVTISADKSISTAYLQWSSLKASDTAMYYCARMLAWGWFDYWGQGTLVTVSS VL: SYELTQPLSVSVALGQTARITCSGDNLGGYYAHWYQQKPGQAPVLVIYDKSDRPSGIPERFSGSNSGNTATLTISRAQAGDEADYYCASYDSSLMMVFGGGTKLTVLG ?
(A) 138

Where do these numbers come from? They come from patent US20190092846A1.
